assay summary: Solubility
Type: physicochemical
assay setup: water, pH 6.5, water; read-out: Solubility of salt in water

- smiles data: "CC(=O)NC[C@H]1CN(c2ccc(-c3ccc(CNCc4cnn[nH]4)cc3)c(F)c2)C(=O)O1"
  solubility [µg/mL]: 60

---

assay summary: Caco-2 permeability
Format: in vitro ADME
assay setup: human

- smiles data: "CC(=O)NC[C@H]1CN(c2ccc(-c3ccc(CNCc4cnn[nH]4)cc3)c(F)c2)C(=O)O1"
  scale unit: "×10⁻⁶ cm/s"
  Papp: 0.5

---

assay summary: Solubility
Format: physicochemical
assay setup: at pH 6.8; read-out: Intrinsic solubility

- molecule: "CC(=O)NC[C@H]1CN(c2ccc(-c3ccc(CNCc4cnn[nH]4)cc3)c(F)c2)C(=O)O1 [model compound]"
  solubility [µg/mL]: 10
